- experimental system: UniProt Q92633
- experimental protocol: LPA1 functional antagonist assay (calcium flux)
- conditions used: CHO cells overexpressing human LPA1; inhibition of calcium flux induced by 10 nM LPA; read-out: hLPA1 IC50
Here, each record is paired with measured pIC50 data.
Units for pIC50: none; it is -log10 of a concentration expressed in mol/L.

Past entries and their recorded results:
{"compound": "CCc1ncnc(NCc2c(-c3ccc(O[C@H]4CCC[C@H](C(=O)O)C4)cn3)nnn2C)n1 [Example 224]", "experimental system": "UniProt Q92633", "pIC50": 6.09}
{"compound": "Cc1nc(-c2nnn(C)c2COc2nccc(OC(C)C)n2)ccc1O[C@H]1CCC[C@@H](C(=O)O)C1 (single isomer, unassigned) [Example 249]", "experimental system": "UniProt Q92633", "pIC50": 7.17}
{"compound": "Cc1nc(-c2nnn(C)c2Nc2ccnc(OC3CC3)n2)ccc1O[C@H]1CCC[C@H](C(=O)O)C1 [Example 228]", "experimental system": "UniProt Q92633", "pIC50": 6.67}

# next compound below
// compound CCCNc1ccnc(NCc2c(-c3ccc(O[C@H]4CCC[C@H](C(=O)O)C4)c(C)n3)nnn2C)n1 [Example 51] , assay UniProt Q92633, pIC50 value: 6.63

---

Documented pIC50 across a set of compounds
- experimental system: human LPA1 (Homo sapiens)
- experimental protocol: LPA1 functional antagonist assay (calcium flux)
- conditions used: CHO cells overexpressing human LPA1; inhibition of calcium flux induced by 10 nM LPA; read-out: hLPA1 IC50
Keep it numeric: pIC50 is minus log10 of the concentration in mol/L.

{"compound": "Cc1nc(-c2nnn(C)c2CNc2nccc(C(C)(C)C)n2)cnc1O[C@H]1CCC[C@H](C(=O)O)C1 [Example 136]", "assay endpoint": "pIC50", "reported measurement": 7.07}
{"compound": "Cc1nc(-c2nnn(C)c2CNc2ncc(C#N)c(C3CCC3)n2)ccc1O[C@H]1CCC[C@H](C(=O)O)C1 [Example 168]", "assay endpoint": "pIC50", "reported measurement": 6.89}
{"compound": "Cc1nc(-c2nnn(C)c2CNc2nccc(OCC3(C)CC3)n2)ccc1O[C@H]1CCC[C@H](C(=O)O)C1 [Example 335]", "assay endpoint": "pIC50", "reported measurement": 7.74}
{"compound": "Cc1nc(-c2nnn(C)c2CNc2nc(C#N)cc(C(C)(C)C)n2)ccc1O[C@H]1CCC[C@H](C(=O)O)C1 [Example 166]", "assay endpoint": "pIC50", "reported measurement": 6.74}
{"compound": "CCCOc1ccnc(Nc2c(-c3ccc(O[C@H]4CCC[C@H](C(=O)O)C4)c(C)n3)nnn2C)n1 [Example 239]", "assay endpoint": "pIC50", "reported measurement": 7.30}

Entry Cc1nc(-c2nnn(C)c2CNc2cc(C(C)C)cnn2)ccc1O[C@H]1CCC[C@H](C(=O)O)C1 [Example 217] under human LPA1 (Homo sapiens) had pIC50 of 7.01

The recorded pIC50 with human LPA1 (Homo sapiens) for CSc1cc(NCc2c(-c3ccc(O[C@H]4CCC[C@H](C(=O)O)C4)c(C)n3)nnn2C)ncn1 [Example 364] was 7.01

---

- experimental system: human LPA1 (Homo sapiens)
- experimental protocol: LPA1 functional antagonist assay (calcium flux)
- conditions used: CHO cells overexpressing human LPA1; inhibition of calcium flux induced by 10 nM LPA; read-out: hLPA1 IC50
assay endpoint: pIC50
Convention used: pIC50 is expressed as -log10 of the molar concentration.

{"compound": "Cc1nc(-c2nnn(C)c2CNc2cc(OC3CCC3)ccn2)ccc1O[C@H]1CCC[C@H](C(=O)O)C1", "assay endpoint": "pIC50", "reported measurement": 6.61}

// next entry
Reported pIC50 of CCC(C)c1ncnc(NCc2c(-c3ccc(O[C@H]4CCC[C@H](C(=O)O)C4)c(C)n3)nnn2C)n1 (mixture of isomers) : 7.03

---

- experimental system: human LPA1 (Homo sapiens, UniProt Q92633)
- Sequence (Q92633 whole entry): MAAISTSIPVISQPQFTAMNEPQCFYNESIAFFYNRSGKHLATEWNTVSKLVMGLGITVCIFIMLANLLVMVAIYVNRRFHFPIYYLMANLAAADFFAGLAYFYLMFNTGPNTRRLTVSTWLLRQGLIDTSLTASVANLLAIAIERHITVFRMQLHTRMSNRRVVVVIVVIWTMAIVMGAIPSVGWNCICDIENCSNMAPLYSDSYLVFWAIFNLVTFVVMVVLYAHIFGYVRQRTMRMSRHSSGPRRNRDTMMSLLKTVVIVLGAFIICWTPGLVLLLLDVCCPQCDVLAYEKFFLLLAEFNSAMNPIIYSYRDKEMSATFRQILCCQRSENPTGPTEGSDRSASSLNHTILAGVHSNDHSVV
- experimental protocol: LPA1 functional antagonist assay (calcium flux)
- conditions used: CHO cells overexpressing human LPA1; inhibition of calcium flux induced by 10 nM LPA; read-out: hLPA1 IC50
Each item that follows carries a reported pIC50.
Quick note: pIC50 values are minus log10 of concentrations in mol/L.

{"smiles code": "COc1cc(C(C)C)nc(NCc2c(-c3ccc(O[C@H]4CCC[C@H](C(=O)O)C4)c(C)n3)nnn2C)n1", "pIC50": 7.57}

// sample Cc1nc(-c2nnn(C)c2CNc2ncc(F)c(NC(C)C)n2)ccc1O[C@H]1CCC[C@H](C(=O)O)C1 , its pIC50 was 7.23

Memo: Cc1nc(-c2nnn(C)c2CNc2nc(O)nc(C3CCCCC3)n2)ccc1O[C@H]1CCC[C@H](C(=O)O)C1 , reported pIC50: 6.14

Query Cn1nnc(-c2ccc(O[C@H]3CCC[C@H](C(=O)O)C3)cn2)c1CNc1ccnc(OCC2(C)CC2)n1 yields pIC50 of 5.64

---

- experimental system: human LPA1 (Homo sapiens, UniProt Q92633)
- experimental protocol: LPA1 functional antagonist assay (calcium flux)
- conditions used: CHO cells overexpressing human LPA1; inhibition of calcium flux induced by 10 nM LPA; read-out: hLPA1 IC50
assay endpoint: pIC50
Scale note: pIC50 = -log10(concentration in M).

Some solved cases for reference:
{"smiles code": "COCc1ccnc(OCc2c(-c3ccc(O[C@H]4CCC[C@H](C(=O)O)C4)c(C)n3)nnn2C)c1", "pIC50": 7.60}
{"smiles code": "Cc1nc(-c2nnn(C)c2CNc2nccc(OCC(C)(C)C)n2)ccc1O[C@H]1CCC[C@H](C(=O)O)C1", "pIC50": 7.44}
{"smiles code": "COCCCOc1cc(OCc2c(-c3ccc(O[C@H]4CCC[C@H](C(=O)O)C4)c(C)n3)nnn2C)ncn1", "pIC50": 7.21}
{"smiles code": "Cc1nc(-c2nnn(C)c2CNc2nccc(Oc3c(F)cc(F)cc3F)n2)ccc1O[C@H]1CCC[C@H](C(=O)O)C1", "pIC50": 7.07}

According to the records, this compound COCCCCOc1ccnc(NCc2c(-c3ccc(O[C@H]4CCC[C@H](C(=O)O)C4)c(C)n3)nnn2C)n1 displays pIC50 of 7.11

Value of measured pIC50 for the entry Cc1nc(-c2nnn(C)c2CNc2nccc(OCC(C)(C)F)n2)ccc1O[C@H]1CCC[C@H](C(=O)O)C1 : 7.28

Quick note, pIC50 for Cn1nnc(-c2ccc(O[C@H]3CCC[C@H](C(=O)O)C3)cn2)c1CNc1nccc(-c2ccccc2F)n1 landed at 7.72

---

Recorded pIC50, one value per entry.
- experimental system: human LPA1 (Homo sapiens, UniProt Q92633)
- experimental protocol: LPA1 functional antagonist assay (calcium flux)
- conditions used: CHO cells overexpressing human LPA1; inhibition of calcium flux induced by 10 nM LPA; read-out: hLPA1 IC50
Schema: pIC50 number; meaning minus log10 of the concentration expressed in molar units.

{"compound": "CCc1nc(-c2nnn(C)c2CNc2nccc(C3CC3)n2)ccc1O[C@H]1CCC[C@H](C(=O)O)C1 [Example 388]", "pIC50": 7.35}
{"compound": "Cc1nc(-c2nnn(C)c2CNc2ncc3c(n2)-c2ccccc2OC3)ccc1O[C@H]1CCC[C@H](C(=O)O)C1 [Example 147]", "pIC50": 6.56}
{"compound": "CCC(C)(C)c1ccnc(NCc2c(-c3ccc(O[C@H]4CCC[C@H](C(=O)O)C4)c(C)n3)nnn2C)n1 [Example 149]", "pIC50": 7.47}
{"compound": "Cc1nc(-c2nnn(C)c2CNc2nccc(C(C)(F)F)n2)ccc1O[C@H]1CCC[C@H](C(=O)O)C1 [Example 133]", "pIC50": 6.94}
{"compound": "Cc1nc(-c2nnn(C)c2COc2ccnc(C(C)C)n2)ccc1O[C@H]1CCC[C@H](C(=O)O)C1 [Example 287]", "pIC50": 7.39}

Measured pIC50 of CCCc1ncnc(NCCc2c(-c3ccc(O[C@H]4CCC[C@H](C(=O)O)C4)c(C)n3)nnn2C)n1 [Example 213] : 5.90

---

- experimental system: human LPA1 (Homo sapiens)
- Construct: expressed in transfected cells; host or cells: Chinese hamster ovary (CHO) cells
- experimental protocol: LPA1 functional antagonist assay (calcium flux)
- Type: cell-based
- conditions used: CHO cells overexpressing human LPA1; inhibition of calcium flux induced by 10 nM LPA; read-out: hLPA1 IC50
Binarize IC50 at 0.04 µM; below is y, at or above is n.

{"smiles code": "CCc1nc(-c2nnn(C)c2CNc2nccc(C(C)C)n2)ccc1O[C@H]1CCC[C@H](C(=O)O)C1", "assigned label": "y"}
{"smiles code": "Cc1nc(-c2nnn(C)c2Nc2nccc(OCCCF)n2)ccc1O[C@H]1CCC[C@H](C(=O)O)C1", "assigned label": "n"}
{"smiles code": "Cc1nc(-c2nnn(C)c2COc2ncc(F)c(NC(C)C)n2)ccc1O[C@H]1CCC[C@H](C(=O)O)C1", "assigned label": "n"}
{"smiles code": "COc1cc(C2CCC2)nc(NCc2c(-c3ccc(O[C@H]4CCC[C@H](C(=O)O)C4)c(C)n3)nnn2C)n1", "assigned label": "y"}
{"smiles code": "Cc1nc(-c2nnn(C)c2CNc2nccc(Oc3cccnc3)n2)ccc1O[C@H]1CCC[C@H](C(=O)O)C1", "assigned label": "n"}

Task: Identify whether the compound Cc1nc(-c2nnn(C)c2COc2nccc(COC3CC3)n2)ccc1O[C@H]1CCC[C@H](C(=O)O)C1 records IC50 below 0.04 µM.
Output: y
